test system: Saccharomyces cerevisiae; assay: protein stability index of tFT-peptide fusion (C-terminal peptide) (PSI (0-1 scale)); higher = more stable (slower turnover); settings: genetic background: cdc34-1; temperature: 37 C;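 also: PSI is a weighted mean of sequencing reads over stability bins, variants kept only with over 10 reads, mCherry proximal and sfGFP distal, peptide attached via GGGS linker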
experimental.readout: protein stability index
Answer with a number only.

Which protein stability index value belongs to ARALLGVGWYWV ?
0.654

Item: LSFFICSFFFVL
0.514

Item: KLALVYLLIRGL
0.423

Item: HVSVIRRGICCA
0.266

Item: RVGGVVVLGCVG
0.645

Item: CFSYLLIVLLFP
0.168

Item: WLVIWPRKLSTV
0.588

Item: RLCKGQKYTKIN
0.597

Item: VVISRVLAIRLL
0.545

Item: IRRWGRCRVRCM
0.584

Item: CGLYNQFCLFLY
0.561

Item: SASPFYLPPPPV
0.709

Item: FVVSCLSWVFLF
0.429

Item: YVQTKKTRYVLV
0.483

Item: VAIMSIWLVYML
0.349

Item: PPPPPSRPFSPP
0.698

Item: VGVSVVMVVEVP
0.0286

Item: FGRAVWSRFCIV
0.604

Item: WYLLCESCLLCL
0.534

Item: YQHSRSGRNKII
0.591

Item: YHGVYLARVLQA
0.639

Item: YFFFFLHFNFAF
0.145

Item: TGYRYVGRFFVV
0.653

Item: CFGFMFLLLFDV
0.307

Item: LPLCGLLLFLFF
0.472

Item: CSSIFSSSDCYA
0.681

Item: VAFLWVAFCFSG
0.205

Item: PFGPTFSPRPFR
0.727

Item: LSLSPRLPRLVA
0.613

Item: GVRRRQLIWSVC
0.532

Item: LLLPVFRFFFVN
0.468

Item: VLGARWHWIYIA
0.281

Item: LIAPSACNLFLF
0.639

Item: VVIWWFSAVVSV
0.0446

Item: HVRLRFQPVLFV
0.527

Item: FCFFSMGFVLAL
0.349

Item: LLHFVLYFLSCT
0.51

Item: SFFFSFFPYFFC
0.639

Item: GSITFFKMVQSG
0.656

Item: LFFSFLFLATRC
0.248

Item: RPSHTSVYRLLH
0.553

Item: PLLPPLSTPPPA
0.69

Item: RRLAVWCDFRSL
0.684

Item: SRLVIGRWSVLV
0.567

Item: GIPVRRLLFLVA
0.419

Item: WRVVVSCALHVC
0.123

Item: VFGFLVFYVCVR
0.0903

Item: LGLLIFQWARVL
0.302

Item: FLMCVFFLCFSN
0.304

Item: KALSSSYFGTRL
0.69

Item: FCASCLVCFIYL
0.492

Item: VFRLFFLLVWLV
0.079

Item: VTGFGVAIVCVT
0.263

Item: LPLQPPPPVCLP
0.656

Item: ICWVSLYFSMLV
0.457

Item: IYPPVSVTNLLV
0.665

Item: RIIDRVSRLIML
0.765

Item: YDVQIEFCVVEV
0.601

Item: PVILISWQLRCY
0.018

Item: GTEFSNVITYLV
0.713

Item: RGWGGGTWVKMG
0.592

Item: RLRWLSPMTHVG
0.634

Item: LIVFSGFLFLLS
0.442

Item: LLLCVVLVSVFG
0.0374

Item: FFLFILYFGSCF
0.358

Item: LFPLFTLIFVHL
0.224

Item: HNLIRKHAKESS
0.63

Item: CGWVRRARVKMM
0.622

Item: WFSVFTMSILSR
0.416

Item: GCGWVFWVVDWG
0.463

Item: GGMVRSCLWCFV
0.675

Item: IFAWPFSATIPW
0.74

Item: VQFISLVCLFRF
0.339

Item: LSLCPVHRLLVL
0.558

Item: SLVLLLLITFSL
0.431

Item: ARCKRSLSGGIG
0.489

Item: FRDRFLRWNLVS
0.481

Item: RWSEHGFLVFLS
0.643

Item: LGFFIFSFLILK
0.0638

Item: SVLASFFSAFVC
0.459

Item: TLCFRLSWVLLV
0.0812

Item: VLYLQCITSAGH
0.169

Every entry's value here was drawn from the supplement of paper PMC10724198.
